test: Oral and intraperitoneal acute toxicity in mice (LD50, Probits method); assay type: in vivo; details: mouse, in vivo; Swiss female mice, ip, 14 days observation; read-out: LD50 i.p.
MEASURED_PARAMETER: LD50 at 336 h (mg/kg)

MOLECULE	RECORDED_NUMBER
COc1cc(C(O)c2ncc([N+](=O)[O-])n2C)c(O)c(C(C)(C)C)c1 (stereo not shown) [EU11100]	890

---

system: Helicobapter pylori; test: Inhibition halos of the bacterial growth (impregnated disks on agar); assay type: cell-based; settings: strain 6, 1 µg/disk
Classify by measured Inhibition halo (mm) at the concentration (µg/disk): YES if it is equal to or exceeds 20 mm, NO if it is smaller.

COMPOUND	TARGET	CLASS_ASSIGNMENT
Cn1c([N+](=O)[O-])cnc1C(O)c1cc(C(C)(C)C)cc(C(C)(C)C)c1O (centres unmarked)	Helicobapter pylori	NO
Cc1cc(C(O)c2ncc([N+](=O)[O-])n2C)c(O)c(C(C)(C)C)c1 (centres unmarked)	Helicobapter pylori	YES
COc1cc(C(O)c2ncc([N+](=O)[O-])n2C)c(O)c(C(C)(C)C)c1 (centres unmarked)	Helicobapter pylori	YES
Cc1ncc([N+](=O)[O-])n1CCO [Metronidazole, reference compound]	Helicobapter pylori	NO
Cc1ccc(C(C)(C)C)c(O)c1C(O)c1ncc([N+](=O)[O-])n1C (centres unmarked)	Helicobapter pylori	YES

---

Reported Inhibition halo (mm), Average values for the following molecules.
test system: Helicobapter pylori; assay: Inhibition halos of the bacterial growth (impregnated disks on agar); type: cell-based; settings: average of 10 strains, 10 µg/disk
MEASURED_PARAMETER: Inhibition halo (mm), Average

MOLECULE	RECORDED_NUMBER
Cc1ccc(C(C)(C)C)c(O)c1C(O)c1ncc([N+](=O)[O-])n1C (centres unmarked) [EU11104]	31.5
Cc1cc(C(O)c2ncc([N+](=O)[O-])n2C)c(O)c(C(C)(C)C)c1 (centres unmarked) [EU11103]	36.6
Cn1c([N+](=O)[O-])cnc1C(O)c1cc(C(C)(C)C)cc(C(C)(C)C)c1O (centres unmarked) [EU11102]	22.9
COc1cc(C(O)c2ncc([N+](=O)[O-])n2C)c(O)c(C(C)(C)C)c1 (centres unmarked) [EU11100]	43.7
Cc1ncc([N+](=O)[O-])n1CCO [Metronidazole, reference compound]	39.5

---

test system: Helicobapter pylori; assay: Minimal inhibiting concentration (agar dilution); type: cell-based; settings: strain 3
MEASURED_PARAMETER: MIC

MOLECULE	RESULT
COc1cc(C(O)c2ncc([N+](=O)[O-])n2C)c(O)c(C(C)(C)C)c1 (stereo not shown)	0.03 µg/mL
Cn1c([N+](=O)[O-])cnc1C(O)c1cc(C(C)(C)C)cc(C(C)(C)C)c1O (stereo not shown)	0.25 µg/mL
Cc1cc(C(O)c2ncc([N+](=O)[O-])n2C)c(O)c(C(C)(C)C)c1 (stereo not shown)	0.03 µg/mL
Cc1ncc([N+](=O)[O-])n1CCO [Metronidazole, reference compound]	0.25 µg/mL

---

system: Helicobapter pylori; experiment: Inhibition halos of the bacterial growth (impregnated disks on agar); assay type: cell-based; conditions: strain 8, 10 µg/disk
Readings of Inhibition halo (mm) at the concentration (µg/disk) for the listed compounds
MEASURED_PARAMETER: Inhibition halo (mm) at the concentration (µg/disk)

COMPOUND	SCALE_UNIT	RECORDED_NUMBER
Cc1cc(C(O)c2ncc([N+](=O)[O-])n2C)c(O)c(C(C)(C)C)c1 (centres unmarked)	mm	45
Cn1c([N+](=O)[O-])cnc1C(O)c1cc(C(C)(C)C)cc(C(C)(C)C)c1O (centres unmarked)	mm	23
Cc1ncc([N+](=O)[O-])n1CCO [Metronidazole, reference compound]	mm	40
COc1cc(C(O)c2ncc([N+](=O)[O-])n2C)c(O)c(C(C)(C)C)c1 (centres unmarked)	mm	48
Cc1ccc(C(C)(C)C)c(O)c1C(O)c1ncc([N+](=O)[O-])n1C (centres unmarked)	mm	37
